# Test system: ATP;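 also: ATP exposure 15 min at 22 °C before imaging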
# measurement_notes: switch fluorescence ratio, 500 uM ATP over buffer (Cy3 cluster intensity, sum of 5 cycles each) (fold (ratio)); higher = stronger signal-on switching upon ATP binding; sequences stand for … in TCGTCGGCAGCGTCAGATGTGTATAAGAGACAGTTTTTTTTTTTTTTTTTTTTTTTTT…TC
# experimental_parameters: aptamer strand: ATP DNA aptamer (quencher-CACCTGGGGGAGTATTGCGGAGGAAGG + anchor), 100 nM annealed; ATP concentration: 500 uM
result_type: switch fluorescence ratio
Format: numeric value only, no unit, no commentary.

Name the recorded switch fluorescence ratio for `GTCTCAAGGG` .
0.981

Recorded switch fluorescence ratio for `TTGTTGTAGC` , please?
1.02

Query: switch fluorescence ratio; subject: `TAATTAGCGG`
1.01

Recorded switch fluorescence ratio of `AATGGGGACT` , please.
1

What value of switch fluorescence ratio has been reported for the following sequence? `CATTACGCCG`
1.11

Request the reported switch fluorescence ratio associated with `AATAGTGCCC`
0.999

Bench note: what switch fluorescence ratio did `TAGTCTACGA` show?
1.03

Value lookup for switch fluorescence ratio; key = `CAATGACACT`
1.04

What switch fluorescence ratio value was documented for this sequence, `TCCTTGACTT` ?
1.15

What does the record list as switch fluorescence ratio for `ATTGATACTA` ?
1.03

Which switch fluorescence ratio value is on record for `AGACTTATTT` ?
1.01

Param item = `GGGTTGATTA` ; retrieve measured switch fluorescence ratio.
0.99

# get_value(readout='switch fluorescence ratio', item= `TTAAGCGGCC` )
1.07

Can you share its switch fluorescence ratio? I mean this sequence: `TTCAGATGGG`
0.972

Requested field: switch fluorescence ratio. Item: `CGCCGGGGGC`
1.03

Could you share which switch fluorescence ratio value was measured for `ACTTTGGGGG` ?
1.01

May I ask what switch fluorescence ratio has been recorded for `GGGAACGATC` ?
1

# get_value(readout='switch fluorescence ratio', item= `CAAAAGCCTA` )
0.974

# switch fluorescence ratio lookup, item `ATTTTACTAA`
1.05

# lookup: switch fluorescence ratio of `ACGTTTCCCC`
1.09

Find the recorded switch fluorescence ratio belonging to `GTGCTAACCT` and report it.
1.27

Could you share which switch fluorescence ratio value was measured for `CGGGCCTGAA` ?
0.999

Given the sequence `AACGGGCCCG` , what is its reported switch fluorescence ratio?
1

Look up switch fluorescence ratio for this sequence: `GCTGGGGATA`
1.03

Entry `CAGAGGTAGG` has what switch fluorescence ratio?
0.973

Record request: switch fluorescence ratio value, item `TCGCGGGGTG`
1.02

Data request, read-out switch fluorescence ratio, for `CGGGTAGCT`
1.01

Tell me the measured switch fluorescence ratio of `CGGGGCACGT` , please.
1.16

Look up switch fluorescence ratio: `TTGTTTCCCG`
1.01

Recorded switch fluorescence ratio of `CCGGTGACGA` , please.
1.05

Endpoint output: switch fluorescence ratio of `CCGGGGGGTT` . Value?
1.09

* * *

# Tested on: ATP;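 also: ATP exposure 15 min at 22 °C before imaging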
# measurement_notes: switch fluorescence ratio, 500 uM ATP over buffer (Cy3 cluster intensity, sum of 5 cycles each) (fold (ratio)); higher = stronger signal-on switching upon ATP binding; sequences stand for … in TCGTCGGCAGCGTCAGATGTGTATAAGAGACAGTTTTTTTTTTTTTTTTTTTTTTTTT…TC
# experimental_parameters: aptamer strand: ATP DNA aptamer (quencher-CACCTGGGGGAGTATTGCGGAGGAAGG + anchor), 100 nM annealed; ATP concentration: 500 uM
Can you tell me switch fluorescence ratio for the items I'm about to list?
// no unit string in output, number only

Which switch fluorescence ratio is reported for this sequence? `TACCATCTTG`
0.997

Name the reported switch fluorescence ratio value associated with the sequence `GTGAGCCGGG`
1.01

Which value of switch fluorescence ratio has been reported for `TTTGAGTGTA` in the records?
0.969

Item `TTGCGACGCT` has what recorded switch fluorescence ratio?
1.17

* * *

Please respond with reported switch fluorescence ratio for every item in the list.
# System: ATP;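 also: ATP exposure 15 min at 22 °C before imaging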
# measurement_notes: switch fluorescence ratio, 500 uM ATP over buffer (Cy3 cluster intensity, sum of 5 cycles each) (fold (ratio)); higher = stronger signal-on switching upon ATP binding; sequences stand for … in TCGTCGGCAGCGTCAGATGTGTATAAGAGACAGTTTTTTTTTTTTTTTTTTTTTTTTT…TC
# experimental_parameters: aptamer strand: ATP DNA aptamer (quencher-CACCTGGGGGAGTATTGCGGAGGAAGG + anchor), 100 nM annealed; ATP concentration: 500 uM
// response body must contain only the number

Fill in the blank: the reported switch fluorescence ratio of `AATATAGGAA` is ____.
1.02

Quick one: switch fluorescence ratio of `ACTTTATCTA` ?
1.03

Please report the recorded switch fluorescence ratio for `AGTTATGTGG` .
1

// returns reported switch fluorescence ratio for input `ATGTATATAG`
0.978

Find the recorded switch fluorescence ratio belonging to `GTATGGCGAC` and report it.
1.02

Record request: switch fluorescence ratio value, item `TATAAGTGAT`
1.17

Look up switch fluorescence ratio: `CGGCGTACAT`
1.04

Item `TGGTTAAGGT` has what recorded switch fluorescence ratio?
0.982

Which switch fluorescence ratio reading was recorded for the sequence `CTTGAAGTTA` ?
1

Name the recorded switch fluorescence ratio for `GGGGTGCGGT` .
0.998

Requested field: switch fluorescence ratio. Item: `CGTATTGGGC`
0.958

Look at this sequence and give its reported switch fluorescence ratio. `ATAGAGGAGA`
0.992

Record request: switch fluorescence ratio value, item `GATTACAGCG`
1.01

Can you look up the measured switch fluorescence ratio of `GAATGGCTGC` for me?
1.04

// switch fluorescence ratio lookup, key: `ACGGCAGGAA`
1.04

// query switch fluorescence ratio value for entry `GGGTTATTCT`
1.01

Using the record for `GACTACTGCA` , report its switch fluorescence ratio.
1.13

I am curious: what switch fluorescence ratio value has been reported for `GTTGCGAAGG` ?
0.983

What value of measured switch fluorescence ratio is listed for `ATGGGTTAGA` ?
1.05

Would you mind telling me what switch fluorescence ratio value was observed for `TTCTACTGGG` ?
1.01

switch fluorescence ratio lookup needed for `CGCTGGGTAC` , thanks.
2.24

Item under review: `AACAGGCGAT` . Reported switch fluorescence ratio?
0.985

Quick one: switch fluorescence ratio for `AAAGGGGTTA` ?
1

Can you look up the measured switch fluorescence ratio of `ACGTTTACCA` for me?
1.22

Please look up its switch fluorescence ratio: `TTGCGTATTT`
0.993

Could you share which switch fluorescence ratio value was measured for `CGTAATTTGA` ?
1.02

* * *

# Tested on: ATP;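 also: ATP exposure 15 min at 22 °C before imaging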
# measurement_notes: switch fluorescence ratio, 500 uM ATP over buffer (Cy3 cluster intensity, sum of 5 cycles each) (fold (ratio)); higher = stronger signal-on switching upon ATP binding; sequences stand for … in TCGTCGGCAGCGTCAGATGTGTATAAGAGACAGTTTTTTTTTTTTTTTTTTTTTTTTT…TC
# experimental_parameters: aptamer strand: ATP DNA aptamer (quencher-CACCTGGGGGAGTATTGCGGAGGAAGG + anchor), 100 nM annealed; ATP concentration: 500 uM
result_type: switch fluorescence ratio

Give its switch fluorescence ratio value. Item: `CAGCTACGTC`
1.01

# get_value(readout='switch fluorescence ratio', item= `GGGAAGTATG` )
1

Entry `CGAGTAGGGG` has what switch fluorescence ratio?
1.01

GET /values?readout=switch fluorescence ratio&item= `ACAGTGTCTT`
1.01

Bench note: what switch fluorescence ratio did `GATAGTTTTT` show?
0.985

Look up switch fluorescence ratio for this sequence: `ATGGGGGCTG`
1.02

* * *

# System: ATP;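 also: ATP exposure 15 min at 22 °C before imaging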
# measurement_notes: switch fluorescence ratio, 500 uM ATP over buffer (Cy3 cluster intensity, sum of 5 cycles each) (fold (ratio)); higher = stronger signal-on switching upon ATP binding; sequences stand for … in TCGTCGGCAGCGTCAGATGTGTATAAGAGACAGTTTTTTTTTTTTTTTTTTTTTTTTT…TC
# experimental_parameters: aptamer strand: ATP DNA aptamer (quencher-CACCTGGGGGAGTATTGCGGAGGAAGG + anchor), 100 nM annealed; ATP concentration: 500 uM
Everything with switch fluorescence ratio lower than 1 is n; everything else, including exactly 1, is y.

Item `GTTTTAGCGG` with switch fluorescence ratio of 1 or above?
n

Hi, just wondering whether `TTTAGGAAAG` shows switch fluorescence ratio of 1 or higher.
y

For this sequence, is measured switch fluorescence ratio 1 or higher? `ATGCATATGG`
y

Given `GGAATTACTG` , state whether its switch fluorescence ratio is at least 1.
y
